- system: Gastrin-releasing peptide receptor (Homo sapiens) (UniProt P30550)
- Sequence (P30550 whole entry, looked up): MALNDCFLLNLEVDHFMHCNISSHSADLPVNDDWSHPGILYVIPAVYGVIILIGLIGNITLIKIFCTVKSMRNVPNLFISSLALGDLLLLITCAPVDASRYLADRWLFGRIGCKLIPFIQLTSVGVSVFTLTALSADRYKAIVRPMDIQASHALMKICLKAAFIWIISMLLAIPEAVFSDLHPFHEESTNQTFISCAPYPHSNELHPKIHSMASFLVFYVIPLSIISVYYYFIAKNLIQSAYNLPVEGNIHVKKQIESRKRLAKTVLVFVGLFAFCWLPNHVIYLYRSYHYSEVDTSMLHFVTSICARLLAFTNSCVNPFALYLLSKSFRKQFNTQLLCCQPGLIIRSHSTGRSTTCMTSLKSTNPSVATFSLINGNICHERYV
observation-type: pKi
Units for pKi: none; it is -log10 of a concentration expressed in mol/L.

CCCC[C@H](NC(=O)[C@H](Cc1ccccc1)NC(=O)[C@H](Cc1cnc[nH]1)NC(=O)C[C@H](NC(=O)[C@@H](NC(=O)[C@H](C)NC(=O)[C@H](Cc1c[nH]c2ccccc12)NC(=O)[C@H](CCC(N)=O)NC(=O)[C@H](N)Cc1ccc(O)cc1)C(C)C)C(=O)O)C(N)=O [NSC_0]; 6.40
CCCC[C@H](NC(=O)[C@H](Cc1ccccc1)NC(=O)[C@H](Cc1c[nH]cn1)NC(=O)C[C@@H](NC(=O)[C@@H](NC(=O)[C@H](C)NC(=O)[C@H](Cc1c[nH]c2ccccc12)NC(=O)[C@H](CCC(N)=O)NC(=O)[C@H](N)Cc1ccc(O)cc1)C(C)C)c1ccccc1)C(N)=O [NSC_0]; 6.82
CCCC[C@H](NC(=O)[C@H](Cc1ccccc1)NC(=O)[C@H](Cc1cnc[nH]1)NC(=O)[C@H](CNC(=O)[C@@H](NC(=O)[C@H](C)NC(=O)[C@H](Cc1c[nH]c2ccccc12)NC(=O)[C@H](CCC(N)=O)NC(=O)[C@H](N)Cc1ccc(O)cc1)C(C)C)NC(C)=O)C(N)=O [NSC_0]; 8.77
CCCC[C@H](NC(=O)[C@H](Cc1ccccc1)NC(=O)[C@H](Cc1cnc[nH]1)NC(=O)C[C@H](NC(=O)[C@@H](NC(=O)[C@H](C)NC(=O)[C@H](Cc1c[nH]c2ccccc12)NC(=O)[C@H](CCC(N)=O)NC(=O)[C@H](N)Cc1ccc(O)cc1)C(C)C)c1ccccc1Cl)C(N)=O [NSC_0]; 6.40
CCCC[C@H](NC(=O)[C@H](Cc1ccccc1)NC(=O)[C@H](Cc1cnc[nH]1)NC(=O)C[C@@H](NC(=O)[C@@H](NC(=O)[C@H](C)NC(=O)[C@H](Cc1c[nH]c2ccccc12)NC(=O)[C@H](CCC(N)=O)NC(=O)[C@H](N)Cc1ccc(O)cc1)C(C)C)c1ccccc1Cl)C(N)=O [NSC_0]; 6.64
CCCC[C@H](NC(=O)[C@H](Cc1ccccc1)NC(=O)[C@H](Cc1cnc[nH]1)NC(=O)[C@@H](N)CNC(=O)[C@@H](NC(=O)[C@H](C)NC(=O)[C@H](Cc1c[nH]c2ccccc12)NC(=O)[C@H](CCC(N)=O)NC(=O)[C@H](N)Cc1ccc(O)cc1)C(C)C)C(N)=O [NSC_0]; 9.00

Could you now look at the following molecule, please?
I'm curious: which pKi was measured for CCCC[C@H](NC(=O)[C@H](Cc1ccccc1)NC(=O)[C@H](Cc1cnc[nH]1)NC(=O)[C@H](CNC(=O)[C@@H](NC(=O)[C@H](C)NC(=O)[C@H](Cc1c[nH]c2ccccc12)NC(=O)[C@H](CCC(N)=O)NC(=O)[C@H](N)Cc1ccc(O)cc1)C(C)C)NC(=O)c1ccccc1)C(N)=O [NSC_0] tested on Gastrin-releasing peptide receptor (Homo sapiens) (UniProt P30550)?
8.51

# credit: BindingDB's records for doi:10.1124/jpet.104.066761
